The origin of these recorded values is ChEMBL document CHEMBL4689842.

- System: U2OS
- ASSAY_TEXT: Multiplex assay against U2OS
- Format: toxicity, cell-based
- CONDITION_DETAILS: human, 24 h, 1 µM, compound concentration 1 uM, replicate 2
Can you tell me Population Hoechst High Intensity Objects (%) for the items I'm about to list?
Please answer in the form of a number followed by its unit of measurement.

Reported Population Hoechst High Intensity Objects (%), compound NC(=O)c1cccc(-c2cc(Nc3ccc(OC(F)(F)F)cc3)ncn2)c1 : ____
6%

Reported Population Hoechst High Intensity Objects (%), compound Cc1cc(C)c(S(=O)(=O)N(Cc2ccc(-c3cccc(S(C)(=O)=O)c3)cc2)Cc2ccc(C(F)(F)F)o2)c(C)c1 : ____
1%

Reported Population Hoechst High Intensity Objects (%), compound O=C1N/C(=N/c2ccccc2F)S/C1=C\c1ccc(C(=O)O)cc1 : ____
5%

Reported Population Hoechst High Intensity Objects (%), compound CNc1cc(Oc2cc(C(=O)Nc3cc(N4CCN(C)CC4)cc(C(F)(F)F)c3)ccc2C)ncn1 : ____
6%

Reported Population Hoechst High Intensity Objects (%), compound S=C(NCCCc1c[nH]cn1)NCCCN(Cc1ccc(Cl)c(Cl)c1)c1ccc(Br)cn1 : ____
8%

---

- Test system: U2OS
- ASSAY_TEXT: Multiplex assay against U2OS
- Type: toxicity, cell-based
- CONDITION_DETAILS: human, 12 h, 1 µM, compound concentration 1 uM, replicate 1
TEST_READOUT: Population Apoptotic (%)

Reported Population Apoptotic (%), compound COc1ccc(S(=O)(=O)N(CCO)c2ccccc2CN(C)C/C=C/c2ccc(Cl)cc2)cc1.O=P(O)(O)O : ____
57%

Reported Population Apoptotic (%), compound COc1ccc(-c2ccc3c(N4CCOCC4)nc(N4C[C@@H](C)O[C@@H](C)C4)nc3n2)cc1CO : ____
36%

Reported Population Apoptotic (%), compound Cc1cn(-c2cc(NC(=O)c3ccc(C)c(Nc4nccc(-c5cccnc5)n4)c3)cc(C(F)(F)F)c2)cn1 : ____
46%

Reported Population Apoptotic (%), compound CCOc1cc(C(=O)N2CCC(N3CCN(C)CC3)CC2)ccc1Nc1ncc2c(n1)N(C1CCCC1)c1ccccc1C(=O)N2C : ____
73%

Reported Population Apoptotic (%), compound CCN1CCN(c2ccc(Nc3cc(N(C)C(=O)Nc4c(Cl)c(OC)cc(OC)c4Cl)ncn3)cc2)CC1 : ____
33%

Reported Population Apoptotic (%), compound Cl.O=c1c2cccn2c2ccccc2n1CCCN1CCC(c2ccc(Cl)cc2)CC1 : ____
53%

Reported Population Apoptotic (%), compound CN(C)C(=O)C(CCN1CCC(O)(c2ccc(Cl)cc2)CC1)(c1ccccc1)c1ccccc1.Cl [LOPERAMIDE HYDROCHLORIDE] : ____
37%

Reported Population Apoptotic (%), compound S=C(NCCCc1c[nH]cn1)NCCCN(Cc1ccc(Cl)c(Cl)c1)c1ccc(Br)cn1 : ____
56%

---

- System: U2OS
- ASSAY_TEXT: Multiplex assay against U2OS
- Type: toxicity, cell-based
- CONDITION_DETAILS: human, 12 h, 10 µM, compound concentration 10 uM, replicate 2
TEST_READOUT: Population Membrane Permeable-Phenotype (%)
The figure you give is taken to be in %; do not add the unit.

Reported Population Membrane Permeable-Phenotype (%), compound Cc1cc(C)c(S(=O)(=O)N(Cc2ccc(-c3cccc(S(C)(=O)=O)c3)cc2)Cc2ccc(C(F)(F)F)o2)c(C)c1 : ____
3

Reported Population Membrane Permeable-Phenotype (%), compound CCCS(=O)(=O)c1nc(NC2CC2)cc(-c2ccc3c(ccn3C3CC(C)(C)NC(C)(C)C3)c2)n1 : ____
100

Reported Population Membrane Permeable-Phenotype (%), compound CCN1CCN(Cc2ccc(Nc3ncc(F)c(-c4cc(F)c5nc(C)n(C(C)C)c5c4)n3)nc2)CC1.CS(=O)(=O)O : ____
88

Reported Population Membrane Permeable-Phenotype (%), compound COCC(=O)NC/C=C/c1ccc2ncnc(Nc3ccc(Oc4ccc(C)nc4)c(C)c3)c2c1 : ____
37

Reported Population Membrane Permeable-Phenotype (%), compound CN1C2CCC1CC(OC(c1ccc(F)cc1)c1ccc(F)cc1)C2.Cl (centres undefined) : ____
10

Reported Population Membrane Permeable-Phenotype (%), compound C=C1/C(=C\C=C2/CCC[C@]3(C)[C@@H]([C@H](C)/C=C/[C@H](C)C(C)C)CC[C@@H]23)C[C@@H](O)C[C@@H]1O : ____
2

Reported Population Membrane Permeable-Phenotype (%), compound Cn1nc(C(F)(F)F)cc1-c1cnc(N2CCc3cc(S(=O)(=O)Nc4c(F)cc(Cl)cc4F)cc(N4CCCC4=O)c32)nc1 : ____
10

Reported Population Membrane Permeable-Phenotype (%), compound Cn1nc(C(=O)NCc2ccc(C(=O)O)cc2)cc1-c1ccc2[nH]ccc2c1 : ____
8

Reported Population Membrane Permeable-Phenotype (%), compound O=C(Cc1ccc(-c2ccc(OCCN3CCOCC3)cc2)cn1)NCc1ccccc1 : ____
4
